Origin of measurements: patent US20210284749A1

- assayed.target: T1, human BCMA-Fc/His (1-51) (human, UniProt Q02223 1-51)
- T1 construct: also called recombinant human BCMA-Fc/His; recombinant human BCMA-His (Sino Biological Inc.); not shown: Fc region; C-terminal His tag
- T1 sequence: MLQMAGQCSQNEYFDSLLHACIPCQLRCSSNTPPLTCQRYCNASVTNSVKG
- procedure.text: BLI (Octet), antigen on Ni-NTA biosensor, IgG in solution
readout.type: koff
Hi, when you answer, please include the unit after the number. Thanks!

// field: koff; key: anti-BCMA IgG antibody 5A6 (antibody, V domains shown, also called 5A6 WT; 5A6 antibody) VH: EVQLLESGGGLVQPGGSLRLSCAASGFTFSNYGVHWVRQAPGKGLEWVSYISYSGGTYYNPSLKSRFTISRDNSKNTLYLQMNSLRAEDTAVYYCARDSDDFGFDYWGQGTLVTVSS VL: QSVLTQPPSASGTPGQRVTISCQGDSLRSYYVNWYQQLPGTAPKLLIYDHSKRPTGVPDRFSGSKSGTSASLAISGLRSEDEADYYCQSYDSSTVVFGGGTKLTVLG ; value = 1.08e-05 s⁻¹

For reference, reported koff for anti-BCMA IgG antibody 4H9 (antibody, V domains shown) VH: EVQLLESGGGLVQPGGSLRLSCAASGFTFSGYSMSWVRQAPGKGLEWVSSIYHTGYTYYNPSLKSRFTISRDNSKNTLYLQMNSLRAEDTAVYYCARYKSGAFDIWGQGTLVTVSS VL: EIVLTQSPGTLSLSPGERATLSCRASQSVSRNLAWYQQKPGQAPRLLIYGVSSRATGIPDRFSGSGSGTDFTLTISRLEPEDFAVYYCQQYGSSPPTFGQGTKVEIKR stands at 0.00179 s⁻¹
